Tested on: Staphylococcus aureus
Test: Antibacterial activity against Staphylococcus aureus MTCC 96 after 24 hrs by NCCLS M7-A5 method
Type: functional
Details: MTCC 96, 24 h
Measured metric: MIC (µg/mL)

Worked cases, answers included:
(Q) Report MIC, nothing else, for this molecule: Cc1cc(C)c2c(=O)[nH]c(-c3cccc(Cl)c3Cl)nc2n1
(A) 100

(Q) Report MIC, nothing else, for this molecule: O=C(O)c1cn(C2CC2)c2cc(N3CCNCC3)c(F)cc2c1=O
(A) 0.39

(Q) Report MIC, nothing else, for this molecule: Cc1cc(C)c2c(=O)[nH]c(-c3cccs3)nc2n1
(A) 25

a: CC(=O)Oc1ccc(-c2nc3nc(C)cc(C)c3c(=O)[nH]2)cc1
b: COc1cc(-c2nc3nc(C)cc(C)c3c(=O)[nH]2)cc(OC)c1OC
c: COc1cc(C2NC(=O)c3c(C)cc(C)nc3N2)ccc1O (stereo unspecified)
(Q) Put the items in sequence by MIC, from largest down. Give the labels in the order specified.
(A) a, b, c
(a: 25 µg/mL, b: 6.25 µg/mL, c: 1.25 µg/mL)
